B1: TPR 5TU (parent)
chain: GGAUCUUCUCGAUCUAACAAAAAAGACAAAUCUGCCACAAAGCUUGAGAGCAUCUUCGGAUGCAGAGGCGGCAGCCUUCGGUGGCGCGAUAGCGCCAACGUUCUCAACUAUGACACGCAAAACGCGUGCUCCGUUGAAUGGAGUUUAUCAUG

Variants of: B1
protocol.text: polymerase ribozyme fitness, log enrichment relative to wild type (log ratio); higher = more active; in vitro selection for triplet polymerase activity
Variants at the floor of the assay were thinned out.
For each entry below, report its polymerase ribozyme fitness (log ratio) value.
Give bare numbers.

Reference set (3 entries):
[
  {
    "sequence.change": "C96G U109G G124C",
    "measured": -2.62
  },
  {
    "sequence.change": "A40U C54A C87U A89C",
    "measured": -2.61
  },
  {
    "sequence.change": "A21C A22U C54U A73G A89G",
    "measured": -1.48
  }
]

Dear colleague, could you send me polymerase ribozyme fitness (log ratio) for each of the items below? Thanks.
1. A52C G94A
2. G11A C125U U139G

A)
1. -0.384
2. -2.67

Dear colleague, could you send me polymerase ribozyme fitness (log ratio) for each of the items below? Thanks.
1. G81A A89C
2. U55G G84U
3. C5G U53G C54A C96U U135A
4. C32A G83A G88C C116G G140C
5. C76A C96G

A)
1. -0.165
2. -0.827
3. -3.79
4. -4.04
5. -1.51

Dear colleague, could you send me polymerase ribozyme fitness (log ratio) for each of the items below? Thanks.
1. U82G A113G C125U
2. A121U C125U G143C U146C
3. C93U G141U
4. C93A U101G
5. A12G C38A C96G
6. C51A G117U
7. C8U A73U

A)
1: -3.28; 2: -3.38; 3: -0.142; 4: -3.29; 5: -0.0836; 6: -1.02; 7: -3.97
